System: MS2 coat protein
Experiment: apparent KD of MS2 coat protein; designed switch direction (-1 OFF switch, 1 ON switch): 1; higher = weaker reporter binding
Details: Eterna round: R95; input ligand: none
In this section, each of the sequences is paired with its reported apparent KD of MS2 coat protein.

Please review the following examples before continuing.
Query :: Give the reported apparent KD of MS2 coat protein for this sequence. AACAAUCUAUCUGAGGAUAUCUUGAAAUAAACAUGAGGAUCACCCAUGUGCAGGAAAACUGCAUAUGAGAAGGCAGAUAGAUUGA [salish99_ss2_r3_028] (puzzle: Same State 2)
Result :: 148 nM

Query :: Give the reported apparent KD of MS2 coat protein for this sequence. GGUCCAGCCUGAGCUGGACUAUAGUAUGUACAUGAGGAUCACCCAUGUCAUGUACAAGUAUGUUGUUUGUCUUGAAA [Sensorship 5 - Jieux - Sensor for hsa-mir-208a] (puzzle: Sensor for hsa-mir-208a)
Result :: 103 nM

Query :: Give the reported apparent KD of MS2 coat protein for this sequence. UGCCAUAGUAUAUUGGUACGUGCUUUUUGACAUGAGGAUCACCCAUGUCCUCGUCAUAUGCGCAGUCCGUAGACUGC (puzzle: Sensor for hsa-mir-208a)
Result :: 374 nM

Query :: Give the reported apparent KD of MS2 coat protein for this sequence. GUACGUGCAACGUAGGAUAUCCACGACACGACAUGAGGAUCACCCAUGUCAAGGCUUAAAAGUCGGGAGAAGGGCGAACCACGGA [Xereenge] (puzzle: Same State 2)
Result :: 19.2 nM

Others:
Query :: Give the reported apparent KD of MS2 coat protein for this sequence. ACGUGGAUAUCACAGGAUAUACUCACAACUACAUGAGGAUCACCCAUGUAGCGGUAUUCCGGUGCGUAGAAGGGUGAUGGACCAC [Same State 2 - Mod of Artece v.3] (puzzle: Same State 2)
Result :: 11.4 nM

Query :: Give the reported apparent KD of MS2 coat protein for this sequence. AUAACCCGUGCUAAGGAUAUGCGUACUCCUACAUGAGGAUCACCCAUGUCCCGCCGAAAAGGAAGGCAGAAGGUAGCACGGGCCG [Lasoleri] (puzzle: Same State 2)
Result :: 126 nM

Query :: Give the reported apparent KD of MS2 coat protein for this sequence. GGAGAGAGAGCGCAGGAUAUUCAAGGAGAAACAUGAGGAUCACCCAUGUGAGAGAGAGAGGAGAGGGAGAAGGGUGAGAGAGAGG [Altered State 2-13 - Jieux - Same State 2] (puzzle: Same State 2)
Result :: 33.6 nM

Query :: Give the reported apparent KD of MS2 coat protein for this sequence. GUAGAAGAACUAGAGGAUAUCCGAGUGGUAACAUGAGGAUCACCCAUGUGAUGAAAGGAACAUGAGGAGAAGGCUAGAAUGAAUG [Mat - Same State 2 - Mod of JL - D83] (puzzle: Same State 2)
Result :: 79.2 nM

Query :: Give the reported apparent KD of MS2 coat protein for this sequence. UACAAUCUAUCUGAGGAUAUCAUGAUAAUAACAUGAGGAUCACCCAUGUGCAGGAAAACUGCAUAUGAGAAGGCAGAUAGAUUGA [Mat - Same State 2 - Mod - D13] (puzzle: Same State 2)
Result :: 417 nM

Query :: Give the reported apparent KD of MS2 coat protein for this sequence. GCAGUACACGCAGAGGAUAUGUCGGUAACGACAUGAGGAUCACCCAUGUGUACGGAAGUACUCAGACAGAAGGCUGUGUACUGCU [Same State 2 - Hyphema v.3] (puzzle: Same State 2)
Result :: 96.2 nM

Query :: Give the reported apparent KD of MS2 coat protein for this sequence. AGUCCAGCCUGAGCUGGACAAAAGCAUGUACAUGAGGAUCACCCAUGUUCAUGUACAAGCUUUUUGCUCGUCUUGCA [salish99_208a_r3_104x] (puzzle: Sensor for hsa-mir-208a)
Result :: 415 nM

Query :: Give the reported apparent KD of MS2 coat protein for this sequence. CGUCCGGCCUGAGCUGGACGGAAGCAUGUACAUGAGGAUCACCCAUGUUCAUGUGCAGGCUUUUUGCUCGUCUUGUG [JL-shm-2.08 JL mod] (puzzle: Sensor for hsa-mir-208a)
Result :: 127 nM

Query :: Give the reported apparent KD of MS2 coat protein for this sequence. UCUUGGUUUUUGCUCGUUUUUUGUGUUGAACAUGAGGAUCACCCAUGUAUUGUACGGUCCAAUUUAAUAAUAAUCCA [JMF 74] (puzzle: Sensor for hsa-mir-208a)
Result :: 82.1 nM

Query :: Give the reported apparent KD of MS2 coat protein for this sequence. GUGCAACCGUGUGAGGAUAUCGGUGAUCAGACAUGAGGAUCACCCAUGUCCGAAGCUCGGAUCUCCGAGAAGGCGCACAGUUGCA [Same State 2 - Mod of Erisin v.6] (puzzle: Same State 2)
Result :: 296 nM

Query :: Give the reported apparent KD of MS2 coat protein for this sequence. GGAAAACAUGAGGAUCACCCAUGUAAUAAUAUGGGAGGAUAUCAGAUUUAAUUUAAUUUAUGAGAAGGCCUAAAGG [Mat - Same State 1 - Mod of Eli - D64] (puzzle: Same State 1)
Result :: 30.6 nM

Query :: Give the reported apparent KD of MS2 coat protein for this sequence. AGGAUAACACAUGAGGAUCACCCAUGUAUUAUUAUUACAAGCUUUUUGCUCGUUUUUAAUAAUACAUGUGUUAUUUU [Default title] (puzzle: Sensor for hsa-mir-208a version 2)
Result :: 133 nM

Query :: Give the reported apparent KD of MS2 coat protein for this sequence. UCAAGCGAGAGGCUCGUCUUAUGUUUGGUACAUGAGGAUCACCCAUGUUAGGGACGAUUUAGUUAGAUGGAAUUUUG [JR_SHM208A_Sub035] (puzzle: Sensor for hsa-mir-208a)
Result :: 65.7 nM

Query :: Give the reported apparent KD of MS2 coat protein for this sequence. UGUCCAGCCUGAGCUGGACAAAAGCAUGUACAUGAGGAUCACCCAUGUUCAUGUACAAGCUUUUUGCUCGUCUUAAA [salish99_208a_r3_030] (puzzle: Sensor for hsa-mir-208a)
Result :: 370 nM

Query :: Give the reported apparent KD of MS2 coat protein for this sequence. AAGAGAGAAAUACAGGAUAUGAGGAAAGGAACAUGAGGAUCACCCAUGUAAGAGAAAGGGAAAGAUCAGAAGGGUAGAGAAGAGA [JR_SS2_Sub001] (puzzle: Same State 2)
Result :: 264 nM
